Target: EGFR (Homo sapiens, UniProt P00533)
Construct: purchased BPS Bioscience
Sequence (P00533 25-1210): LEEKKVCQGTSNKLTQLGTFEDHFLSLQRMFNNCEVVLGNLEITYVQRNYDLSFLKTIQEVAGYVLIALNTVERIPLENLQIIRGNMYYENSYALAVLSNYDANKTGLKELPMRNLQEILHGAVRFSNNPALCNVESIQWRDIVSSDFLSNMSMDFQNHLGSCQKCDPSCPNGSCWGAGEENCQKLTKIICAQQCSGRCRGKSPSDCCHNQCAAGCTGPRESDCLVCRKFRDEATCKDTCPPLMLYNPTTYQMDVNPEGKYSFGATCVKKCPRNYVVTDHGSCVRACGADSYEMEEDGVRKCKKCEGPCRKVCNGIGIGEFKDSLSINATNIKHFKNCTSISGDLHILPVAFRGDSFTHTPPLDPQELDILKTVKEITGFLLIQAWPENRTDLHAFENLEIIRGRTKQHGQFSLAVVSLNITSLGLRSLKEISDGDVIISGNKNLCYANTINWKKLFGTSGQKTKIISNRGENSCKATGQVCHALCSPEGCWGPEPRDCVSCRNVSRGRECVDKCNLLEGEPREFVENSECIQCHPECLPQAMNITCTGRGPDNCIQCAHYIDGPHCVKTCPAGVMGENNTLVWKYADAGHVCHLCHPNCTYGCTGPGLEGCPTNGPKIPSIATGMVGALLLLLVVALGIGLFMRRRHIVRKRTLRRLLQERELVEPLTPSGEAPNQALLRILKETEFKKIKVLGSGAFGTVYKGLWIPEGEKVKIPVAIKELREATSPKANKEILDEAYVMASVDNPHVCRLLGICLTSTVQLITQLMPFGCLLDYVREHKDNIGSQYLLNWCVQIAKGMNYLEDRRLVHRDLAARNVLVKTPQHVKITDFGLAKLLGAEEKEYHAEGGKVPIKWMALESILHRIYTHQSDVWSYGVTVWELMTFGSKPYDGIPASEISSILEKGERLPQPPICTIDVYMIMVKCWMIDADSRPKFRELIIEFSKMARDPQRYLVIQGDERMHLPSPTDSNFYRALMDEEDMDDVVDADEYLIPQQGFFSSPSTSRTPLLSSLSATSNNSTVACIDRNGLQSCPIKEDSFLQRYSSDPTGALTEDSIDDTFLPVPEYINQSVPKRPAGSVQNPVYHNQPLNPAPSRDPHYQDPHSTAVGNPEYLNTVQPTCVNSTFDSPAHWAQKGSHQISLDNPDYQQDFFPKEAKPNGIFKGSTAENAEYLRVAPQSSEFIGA
Test: Kinase inhibition assay (Kinase-Glo Plus), EGFR
Format: biochemical
Settings: read-out: % inhibition of 10 μM EGFR; 10 μM compound
Method: Luminescence signal was measured using a BioTek Synergy 2 microplate reader.
readout label: inhibition at 10 µM (%)
I only need the number, in %, no unit after it.

Problem: Param item = `COc1ccc2c(c1)c(CC(=O)SC1CCCCC1)c(C)n2C(=O)c1ccc(Cl)cc1` ; retrieve measured inhibition at 10 µM.
Solution: 1

Problem: Param item = CC(C(=O)SC1CCCCC1)c1cccc(C(=O)c2ccccc2)c1 (stereo not drawn) ; retrieve measured inhibition at 10 µM.
Solution: 0

Problem: Param item = `O=C(Cc1ccccc1Nc1c(Cl)cccc1Cl)Sc1ccccc1` ; retrieve measured inhibition at 10 µM.
Solution: 6

Problem: Param item = `COc1ccc2c(c1)c(CC(=O)Sc1ccccc1)c(C)n2C(=O)c1ccc(Cl)cc1` ; retrieve measured inhibition at 10 µM.
Solution: 0

Problem: Param item = CC1=C(CC(=O)Sc2ccccc2)c2cc(F)ccc2C1=Cc1ccc([S+](C)[O-])cc1 (stereo not drawn) ; retrieve measured inhibition at 10 µM.
Solution: 6

Problem: Param item = CC(C(=O)SC1CCCCC1)c1ccc(-c2ccccc2)c(F)c1 (stereo not drawn) ; retrieve measured inhibition at 10 µM.
Solution: 0

###

Give measured IC50 for each item. Keep answers brief.
system: HCT-116; assay: MTT antitumor assay, HCT-116; conditions: Homo sapiens, HCT-116, read-out: IC50 (μM) HCT-116, human colon cancer cell line, MTT, mean ± SD, n = 3
I only need the number, in µM, no unit after it.

Problem: Param item = COc1ccc2cc(C(C)C(=O)SC3CCCCC3)ccc2c1 (stereo not shown) ; retrieve measured IC50.
Solution: 39.5

Problem: Param item = CC(C)Cc1ccc(C(C)C(=O)Sc2ccccc2)cc1 (stereo not shown) ; retrieve measured IC50.
Solution: 89.6

Problem: Param item = O=c1[nH]cc(F)c(=O)[nH]1 [5-FU, 5-Fluorouracil, reference compound] ; retrieve measured IC50.
Solution: 5.32

Problem: Param item = CN(C)C/C=C/C(=O)Nc1cc2c(Nc3ccc(F)c(Cl)c3)ncnc2cc1O[C@H]1CCOC1 [Afatinib, reference compound] ; retrieve measured IC50.
Solution: 6.2

Problem: Param item = CC(C(=O)SC1CCCCC1)c1cccc(C(=O)c2ccccc2)c1 (stereo not shown) ; retrieve measured IC50.
Solution: 18.7

Problem: Param item = `COc1ccc2c(c1)c(CC(=O)SC1CCCCC1)c(C)n2C(=O)c1ccc(Cl)cc1` ; retrieve measured IC50.
Solution: 34

Problem: Param item = CC1=C(CC(=O)SC2CCCCC2)c2cc(F)ccc2C1=Cc1ccc([S+](C)[O-])cc1 (stereo not shown) ; retrieve measured IC50.
Solution: 46.7

Problem: Param item = `O=C(Cc1ccccc1Nc1c(Cl)cccc1Cl)Sc1ccccc1` ; retrieve measured IC50.
Solution: 46.9

Problem: Param item = `CC(=O)Oc1ccccc1C(=O)SC1CCCCC1` ; retrieve measured IC50.
Solution: 76.5

Problem: Param item = `COc1ccc2c(c1)c(CC(=O)Sc1ccccc1)c(C)n2C(=O)c1ccc(Cl)cc1` ; retrieve measured IC50.
Solution: 14.6

###

target: HER2 (Homo sapiens, UniProt P04626); construct: purchased BPS Bioscience; experiment: Kinase inhibition assay (Kinase-Glo Plus), HER2; type: biochemical; details: read-out: % inhibition of 10 μM HER2; 10 μM compound
Sequence (P04626 23-1255): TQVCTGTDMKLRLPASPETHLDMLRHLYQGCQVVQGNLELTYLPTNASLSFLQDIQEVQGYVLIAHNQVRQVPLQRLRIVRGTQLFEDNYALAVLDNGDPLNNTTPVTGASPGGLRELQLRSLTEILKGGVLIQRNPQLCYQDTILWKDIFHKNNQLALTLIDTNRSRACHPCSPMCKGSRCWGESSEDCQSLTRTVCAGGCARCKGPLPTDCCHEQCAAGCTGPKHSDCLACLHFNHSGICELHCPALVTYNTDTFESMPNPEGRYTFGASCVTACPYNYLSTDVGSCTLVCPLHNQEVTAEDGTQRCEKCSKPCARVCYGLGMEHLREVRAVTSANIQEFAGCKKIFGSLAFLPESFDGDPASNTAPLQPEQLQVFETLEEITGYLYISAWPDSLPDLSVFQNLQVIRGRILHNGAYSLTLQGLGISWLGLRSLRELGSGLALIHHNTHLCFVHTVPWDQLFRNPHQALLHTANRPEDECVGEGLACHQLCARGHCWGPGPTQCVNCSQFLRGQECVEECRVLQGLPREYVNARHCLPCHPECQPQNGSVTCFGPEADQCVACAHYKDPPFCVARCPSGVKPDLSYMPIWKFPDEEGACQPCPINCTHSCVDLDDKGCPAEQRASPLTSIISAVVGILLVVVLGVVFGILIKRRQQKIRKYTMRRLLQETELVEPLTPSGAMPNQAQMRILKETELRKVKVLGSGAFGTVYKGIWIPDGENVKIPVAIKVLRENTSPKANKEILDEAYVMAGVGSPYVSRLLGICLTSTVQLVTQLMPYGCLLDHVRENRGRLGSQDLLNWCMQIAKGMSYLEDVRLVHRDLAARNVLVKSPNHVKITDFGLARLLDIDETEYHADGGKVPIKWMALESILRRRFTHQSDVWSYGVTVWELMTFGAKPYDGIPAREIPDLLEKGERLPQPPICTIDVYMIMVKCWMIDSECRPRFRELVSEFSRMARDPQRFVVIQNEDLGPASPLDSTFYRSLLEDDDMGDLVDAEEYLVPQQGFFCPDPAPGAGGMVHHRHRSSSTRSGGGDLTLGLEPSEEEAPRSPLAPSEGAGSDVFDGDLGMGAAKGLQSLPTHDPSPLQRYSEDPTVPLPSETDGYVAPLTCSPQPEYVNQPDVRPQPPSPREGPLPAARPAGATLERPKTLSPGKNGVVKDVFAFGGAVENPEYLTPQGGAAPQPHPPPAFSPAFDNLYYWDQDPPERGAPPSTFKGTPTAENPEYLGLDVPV
readout label: inhibition at 10 µM
Value and unit, in that order.

Problem: Param item = CC(C(=O)SC1CCCCC1)c1cccc(C(=O)c2ccccc2)c1 (stereo not drawn) [2b] ; retrieve measured inhibition at 10 µM.
Solution: 1%

Problem: Param item = O=C(Cc1ccccc1Nc1c(Cl)cccc1Cl)Sc1ccccc1 [6a] ; retrieve measured inhibition at 10 µM.
Solution: 1%

Problem: Param item = CC1=C(CC(=O)Sc2ccccc2)c2cc(F)ccc2C1=Cc1ccc([S+](C)[O-])cc1 (stereo not drawn) [8a] ; retrieve measured inhibition at 10 µM.
Solution: 0%

Problem: Param item = COc1ccc2c(c1)c(CC(=O)Sc1ccccc1)c(C)n2C(=O)c1ccc(Cl)cc1 [7a] ; retrieve measured inhibition at 10 µM.
Solution: 0%

Problem: Param item = CC(C(=O)SC1CCCCC1)c1ccc(-c2ccccc2)c(F)c1 (stereo not drawn) [3b] ; retrieve measured inhibition at 10 µM.
Solution: 0%

Problem: Param item = COc1ccc2c(c1)c(CC(=O)SC1CCCCC1)c(C)n2C(=O)c1ccc(Cl)cc1 [7b] ; retrieve measured inhibition at 10 µM.
Solution: 0%

###

Give measured IC50 for each item. Keep answers brief.
Target protein (sequence): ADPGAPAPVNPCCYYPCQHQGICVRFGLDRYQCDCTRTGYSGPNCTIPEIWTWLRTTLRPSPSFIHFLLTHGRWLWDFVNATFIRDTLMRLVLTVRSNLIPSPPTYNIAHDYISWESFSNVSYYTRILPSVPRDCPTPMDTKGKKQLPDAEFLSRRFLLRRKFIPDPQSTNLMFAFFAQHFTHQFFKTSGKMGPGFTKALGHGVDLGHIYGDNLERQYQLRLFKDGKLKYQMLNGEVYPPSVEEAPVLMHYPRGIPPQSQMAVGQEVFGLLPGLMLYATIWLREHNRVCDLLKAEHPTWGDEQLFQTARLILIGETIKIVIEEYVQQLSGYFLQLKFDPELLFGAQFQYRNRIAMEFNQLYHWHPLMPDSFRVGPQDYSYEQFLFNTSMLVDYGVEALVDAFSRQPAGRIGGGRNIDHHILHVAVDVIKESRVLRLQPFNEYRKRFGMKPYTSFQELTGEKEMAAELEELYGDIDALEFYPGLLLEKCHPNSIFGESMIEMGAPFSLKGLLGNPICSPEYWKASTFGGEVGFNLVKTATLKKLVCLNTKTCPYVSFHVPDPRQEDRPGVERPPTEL

Problem: Param item = CC1=C(CC(=O)SC2CCCCC2)c2cc(F)ccc2C1=Cc1ccc([S+](C)[O-])cc1 (centres unmarked) ; retrieve measured IC50.
Solution: > 50 µM

Problem: Param item = CC(C(=O)SC1CCCCC1)c1ccc(-c2ccccc2)c(F)c1 (centres unmarked) ; retrieve measured IC50.
Solution: > 50 µM

Problem: Param item = CC1=C(CC(=O)Sc2ccccc2)c2cc(F)ccc2C1=Cc1ccc([S+](C)[O-])cc1 (centres unmarked) ; retrieve measured IC50.
Solution: > 50 µM

Problem: Param item = `COc1ccc2c(c1)c(CC(=O)SC1CCCCC1)c(C)n2C(=O)c1ccc(Cl)cc1` ; retrieve measured IC50.
Solution: > 50 µM

Problem: Param item = `O=C(Cc1ccccc1Nc1c(Cl)cccc1Cl)Sc1ccccc1` ; retrieve measured IC50.
Solution: > 50 µM

###

Give measured inhibition at 10 µM for each item. Keep answers brief.
molecular target: HER4 (Homo sapiens); construct: purchased BPS Bioscience; test: Kinase inhibition assay (Kinase-Glo Plus), HER4; type: biochemical; conditions: read-out: % inhibition of 10 μM HER4; 10 μM compound
Sequence (Q15303 26-1308): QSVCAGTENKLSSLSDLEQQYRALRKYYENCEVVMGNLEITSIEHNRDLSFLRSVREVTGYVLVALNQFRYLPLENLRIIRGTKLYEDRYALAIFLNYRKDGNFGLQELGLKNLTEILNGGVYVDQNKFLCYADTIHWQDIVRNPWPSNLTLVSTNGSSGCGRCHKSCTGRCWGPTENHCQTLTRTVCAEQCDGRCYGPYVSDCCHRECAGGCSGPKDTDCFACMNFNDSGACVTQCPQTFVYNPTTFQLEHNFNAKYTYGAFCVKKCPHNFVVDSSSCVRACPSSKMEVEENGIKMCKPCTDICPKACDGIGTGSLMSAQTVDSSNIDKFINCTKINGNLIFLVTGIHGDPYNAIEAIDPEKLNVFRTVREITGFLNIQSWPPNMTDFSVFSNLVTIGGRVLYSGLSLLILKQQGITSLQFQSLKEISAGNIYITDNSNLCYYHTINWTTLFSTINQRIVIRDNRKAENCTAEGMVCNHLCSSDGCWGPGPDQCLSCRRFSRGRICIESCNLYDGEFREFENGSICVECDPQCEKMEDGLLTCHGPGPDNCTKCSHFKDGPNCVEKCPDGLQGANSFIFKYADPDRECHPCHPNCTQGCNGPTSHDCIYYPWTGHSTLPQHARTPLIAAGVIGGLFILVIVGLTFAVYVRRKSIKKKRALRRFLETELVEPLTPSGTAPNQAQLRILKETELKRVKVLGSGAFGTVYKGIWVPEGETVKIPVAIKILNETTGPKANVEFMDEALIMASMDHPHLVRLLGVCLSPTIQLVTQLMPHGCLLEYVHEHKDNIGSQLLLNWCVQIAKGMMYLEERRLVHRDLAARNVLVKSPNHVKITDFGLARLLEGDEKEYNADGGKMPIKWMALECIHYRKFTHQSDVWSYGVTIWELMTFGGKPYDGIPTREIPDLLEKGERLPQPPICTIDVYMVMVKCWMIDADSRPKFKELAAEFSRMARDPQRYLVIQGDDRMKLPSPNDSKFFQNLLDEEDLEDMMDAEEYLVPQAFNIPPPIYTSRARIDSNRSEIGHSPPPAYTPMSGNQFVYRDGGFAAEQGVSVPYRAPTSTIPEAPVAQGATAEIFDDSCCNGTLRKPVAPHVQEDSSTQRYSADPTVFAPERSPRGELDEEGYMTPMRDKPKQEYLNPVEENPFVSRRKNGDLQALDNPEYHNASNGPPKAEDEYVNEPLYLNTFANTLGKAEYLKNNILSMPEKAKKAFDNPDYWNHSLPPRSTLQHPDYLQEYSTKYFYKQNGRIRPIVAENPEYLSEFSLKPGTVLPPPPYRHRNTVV
I only need the number, in %, no unit after it.

Problem: Param item = `O=C(Cc1ccccc1Nc1c(Cl)cccc1Cl)Sc1ccccc1` ; retrieve measured inhibition at 10 µM.
Solution: 5

Problem: Param item = CC(C(=O)SC1CCCCC1)c1ccc(-c2ccccc2)c(F)c1 (stereo not drawn) ; retrieve measured inhibition at 10 µM.
Solution: 3

Problem: Param item = CC(C(=O)SC1CCCCC1)c1cccc(C(=O)c2ccccc2)c1 (stereo not drawn) ; retrieve measured inhibition at 10 µM.
Solution: 5

Problem: Param item = `COc1ccc2c(c1)c(CC(=O)SC1CCCCC1)c(C)n2C(=O)c1ccc(Cl)cc1` ; retrieve measured inhibition at 10 µM.
Solution: 3

Problem: Param item = CC1=C(CC(=O)Sc2ccccc2)c2cc(F)ccc2C1=Cc1ccc([S+](C)[O-])cc1 (stereo not drawn) ; retrieve measured inhibition at 10 µM.
Solution: 10

Problem: Param item = `COc1ccc2c(c1)c(CC(=O)Sc1ccccc1)c(C)n2C(=O)c1ccc(Cl)cc1` ; retrieve measured inhibition at 10 µM.
Solution: 4

###

Give measured IC50 for each item. Keep answers brief.
system: MCF-7; experiment: MTT antitumor assay, MCF-7; details: Homo sapiens, MCF7, read-out: IC50 (μM) MCF-7, human breast adenocarcinoma cell line, MTT, mean ± SD, n = 3
I only need the number, in µM, no unit after it.

Problem: Param item = CC(C(=O)SC1CCCCC1)c1ccc(-c2ccccc2)c(F)c1 (stereo not shown) [3b] ; retrieve measured IC50.
Solution: 13.7

Problem: Param item = CC1=C(CC(=O)Sc2ccccc2)c2cc(F)ccc2C1=Cc1ccc([S+](C)[O-])cc1 (stereo not shown) [8a] ; retrieve measured IC50.
Solution: 8.62

Problem: Param item = CC(C(=O)SC1CCCCC1)c1cccc(C(=O)c2ccccc2)c1 (stereo not shown) [2b] ; retrieve measured IC50.
Solution: 11.9

Problem: Param item = CC(C(=O)Sc1ccccc1)c1ccc(-c2ccccc2)c(F)c1 (stereo not shown) [3a] ; retrieve measured IC50.
Solution: 63.6

Problem: Param item = O=c1[nH]cc(F)c(=O)[nH]1 [5-FU, 5-Fluorouracil, reference compound] ; retrieve measured IC50.
Solution: 5.43

Problem: Param item = CC(=O)Oc1ccccc1C(=O)Sc1ccccc1 [4a, 2-[(Phenylthio)carbonyl]phenyl acetate] ; retrieve measured IC50.
Solution: 73.7

Problem: Param item = COc1ccc2c(c1)c(CC(=O)Sc1ccccc1)c(C)n2C(=O)c1ccc(Cl)cc1 [7a] ; retrieve measured IC50.
Solution: 9.65

Problem: Param item = CC1=C(CC(=O)SC2CCCCC2)c2cc(F)ccc2C1=Cc1ccc([S+](C)[O-])cc1 (stereo not shown) [8b] ; retrieve measured IC50.
Solution: 34.1

Problem: Param item = CC(=O)Oc1ccccc1C(=O)SC1CCCCC1 [4b] ; retrieve measured IC50.
Solution: 46.5

Problem: Param item = O=C(Cc1ccccc1Nc1c(Cl)cccc1Cl)Sc1ccccc1 [6a] ; retrieve measured IC50.
Solution: 6.11

Problem: Param item = CN(C)C/C=C/C(=O)Nc1cc2c(Nc3ccc(F)c(Cl)c3)ncnc2cc1O[C@H]1CCOC1 [Afatinib, reference compound] ; retrieve measured IC50.
Solution: 7.1

Problem: Param item = COc1ccc2cc(C(C)C(=O)SC3CCCCC3)ccc2c1 (stereo not shown) [5b] ; retrieve measured IC50.
Solution: 28.9

Problem: Param item = CC(C)Cc1ccc(C(C)C(=O)Sc2ccccc2)cc1 (stereo not shown) [1a] ; retrieve measured IC50.
Solution: 80.4

Problem: Param item = COc1ccc2cc(C(C)C(=O)Sc3ccccc3)ccc2c1 (stereo not shown) [5a] ; retrieve measured IC50.
Solution: 42.6

Problem: Param item = COc1ccc2c(c1)c(CC(=O)SC1CCCCC1)c(C)n2C(=O)c1ccc(Cl)cc1 [7b] ; retrieve measured IC50.
Solution: 17.1
